# Target Or Test System: GABA-A receptor; alpha-1/beta-2/gamma-2 (Rattus norvegicus) (UniProt P18508+P62813+P63138)
# Test Description: In vitro direct current effect against rat GABA receptor alpha-1-beta-2-gamma-2 subunits expressed in Xenopus laevis oocytes at 10 uM (ratio +/- compound, without GABA)
# Assay type: cell-based
# Condition Details: Oocyte

| Compound | Ratio |
| --- | --- |
| C[C@]12CC[C@@H](O)C[C@H]1CC[C@H]1[C@@H]3CCC4C=CC(=O)C[C@@]43CC[C@@H]12 (some centres not stated) | -0.02 |
| C[C@]12CC[C@@H](O)C[C@@H]1CC[C@@H]1[C@@H]2CC[C@]23C(=O)CCCC2CC[C@@H]13 (some centres not stated) | 0.39 |
| C[C@]12CC[C@@H](O)C[C@@H]1CC[C@H]1C3CCC4C(=O)C=CC[C@@]43CC[C@@H]12 (single isomer, unassigned) | 0.72 |
| C[C@]12CC[C@@H](O)C[C@@H]1CC[C@@H]1[C@@H]2CC[C@]23C(=O)C=CC[C@H]2CC[C@@H]13 | 0.07 |
| C[C@]12CC[C@@H](O)C[C@H]1CC[C@H]1[C@@H]3CCC4C(=O)CCC[C@@]43CC[C@@H]12 (some centres not stated) | -0.25 |
| C[C@]12CC[C@@H](O)C[C@H]1CC[C@H]1[C@@H]3CCC4CCC(=O)C[C@@]43CC[C@@H]12 (some centres not stated) | 0.01 |
| C[C@]12CC[C@@H](O)C[C@@H]1CC[C@H]1[C@@H]3CCC4C=CC(=O)C[C@@]43CC[C@@H]12 (some centres not stated) | 0.35 |
